Assay: Permeability in CALU-3 cells
Type: in vitro ADME
Conditions: human; basal-to-apical, CALU-3 monolayers, pH 7.4, 37° C., 10 μM compound
Note to self: values exactly at 0.1 ×10⁻⁶ cm/s are Fulfilled. So Papp B→A at 90 min, 10 μM at or above 0.1 ×10⁻⁶ cm/s is Fulfilled, below is Not fulfilled.

{"structure as smiles": "CC[n+]1c(CNC(=O)c2nc(Cl)c(N)nc2N)n(C[C@@H]2CCCO2)c2cccc(OCC(=O)N(C)Cc3nc(C)ccc3[O-])c21", "classification": "Fulfilled"}
{"structure as smiles": "CCn1c(CNC(=O)c2nc(Cl)c(N)nc2N)[n+](CC)c2c(C(=O)NCCN(C)C)cccc21.[Cl-]", "classification": "Not fulfilled"}
{"structure as smiles": "CC[n+]1c(CNC(=O)c2nc(Br)c(N)nc2N)n(C[C@@H]2CCCO2)c2cccc(OCC(=O)N3C[C@H](O)[C@@H](O)C3)c21.O=C([O-])C(F)(F)F", "classification": "Fulfilled"}
{"structure as smiles": "CCn1c(CNC(=O)c2nc(Cl)c(N)nc2N)[n+](CC)c2c(C(=O)NCCCN)cccc21.Cl.[Cl-]", "classification": "Not fulfilled"}

Here's the next entry for you.
Could you tell me if the measured Papp B→A at 90 min, 10 μM of CC[n+]1c(CNC(=O)c2nc(Cl)c(N)nc2N)n(C[C@@H]2CCCO2)c2cccc(OCC(=O)NC3CCNCC3)c21.O=C(O)C(F)(F)F.O=C([O-])C(F)(F)F reaches 0.1 ×10⁻⁶ cm/s or more?
Fulfilled

Data provenance: patent US9932324B2
